Numbers sourced from the nanobody polyreactivity screen of Harvey et al. (2022).

- Assay summary: yeast display, Sf9 membrane polyspecificity reagent, FACS + sequencing; frameworks hold sequencing errors
Assay metric: polyreactivity (PSR sort gate)

Ask: GET /values?readout=polyreactivity (PSR sort gate)&item= QVQLVESGGGLVQAGGSLRLSCAASGSIFGLNAMGCYRQAPGKERELVAAISGGSTNYADSVKGRFTISRDNAKNTVYLQMNSLKPEDTAVYYCAARARRRYYYWGQGTQVTVSS
Result: high polyreactivity

Ask: GET /values?readout=polyreactivity (PSR sort gate)&item= QVQLVVSGGGLVQAGGSLRLSCAASGYTFDDYAMAWYRQAPGKERELVAAISRGGSTYYADSVKGRFTISRDNAKNTVYLQMNSLIPEDTSVYYCAAVYRVRKITNDYWGQGTQVTVSS
Result: high polyreactivity

Ask: GET /values?readout=polyreactivity (PSR sort gate)&item= QVQLVESGGGLVQAGGSLRLSCAASGFTFQNYAMGWYRQAPGKERELVAAISWGGGSTYYADSVKGRFTISRDNAQNTVYLQMNSLKPEDTAVYYCNAYEYLSAGYDYWGQGTQVTVSS
Result: low polyreactivity

Ask: GET /values?readout=polyreactivity (PSR sort gate)&item= QVQLVESGGGLVQAGGSLRLSCAASGFIFVYNDMGWYRPAPGKERELVAAISTSGGSTYYADSVKGRFTISRDNAKNTVYLQMNSLKPEDTAVYYCAAGPSYYPFFWPDFEYWGQGTQVTVSS
Result: high polyreactivity

Ask: GET /values?readout=polyreactivity (PSR sort gate)&item= QVQLVESGGGLVQAGGSLRLSCAASGSIFGVYAMGWYRQAPGKEREFVASISWSAGSTYYADSVKGRFTISRDNAKNTVYLQMNSLKPEDTAVYYCAARVWRYPYYWGQGTQVTVSS
Result: high polyreactivity

Ask: GET /values?readout=polyreactivity (PSR sort gate)&item= QVQLVERGGGLVQAGGSLRLSCAASGRIFYVNTMGCYRQAPGKERELVATISSAASTNYADSVKGRFTISRDHAKNTVYLQMNSLKPEETAVYYCNAALYKEYYYWGQGTQVTVSS
Result: low polyreactivity

Ask: GET /values?readout=polyreactivity (PSR sort gate)&item= QVQLVESGGGLVQAGGSLRLSCAASGRIFWGYAMGWYRQAPGKERELVAGITTGGSTKYADSVKGRFTISRDNAKNTVYLQMNSLKPEDTAVYYCAATGKWYHFYHYGYWGQGTQVTVSS
Result: low polyreactivity

Ask: GET /values?readout=polyreactivity (PSR sort gate)&item= QVQLEDSGGGLVQAGGSLRLSCAASGRTSVGYVMGWYRQAPGKERELVAAISASGGSTYYADSVKGRFTISRDNAKNTVYLQMNSLKPEDTAVYYCNAPVYVPYDYWGQGTQVTVSS
Result: low polyreactivity

Ask: GET /values?readout=polyreactivity (PSR sort gate)&item= QVHLVDSGGGLFQAGGILRLSCAASGRTIATNAMGWYRQAPGKERELVAGISWRVGRTYYADSVKGRFTISRDNAKNSVYLQMFSLKPEDTAVYYCAANPVRSRYGYWGQGTQVTVSS
Result: high polyreactivity

Ask: GET /values?readout=polyreactivity (PSR sort gate)&item= QVQIVESGGGLVQAGGSLRLSCAASGITFRRNAMGWYRQAPGKERELVAVITSVGTTYYADSVKGRFTISRDNAKNTVYLQMNSLKPEDTAVYYCAARFYWGQGTQVTVSS
Result: high polyreactivity

Turning to the following sequence.
Ask: GET /values?readout=polyreactivity (PSR sort gate)&item= QVQLVESGGGLVQAGGSLRLSGAASGRTFVYYAMGWYRQAPGKEREFVAAISRSGGRTSYADSVKGRFTISRDNAKNTVYLQMNSLKPEDTAVYDCAKRPQFFWSHPYDYWGQGTLVTVSS
Result: high polyreactivity
